system: SK-MEL-2; assay: panel of 60 human tumor cell lines, growth inhibition (Melanoma); settings: SK-MEL-2; Log10 Concentration −7.0
REPORTED PROPERTY: Percent Growth (%)
Enter your answer as a number in %; do not include the unit.

C=C1C(=O)O[C@H]2[C@H]1CC/C(COC(=O)N1CCC(F)(F)CC1)=C\CC[C@@]1(C)O[C@@H]21: 99
C=C1C(=O)O[C@H]2[C@H]1CC/C(COC(=O)NC)=C\CC[C@@]1(C)O[C@@H]21: 99
C=C1C(=O)O[C@H]2[C@H]1CC/C(COC(=O)CCC(=O)NCc1ccc(Cl)nc1)=C\CC[C@@]1(C)O[C@@H]21: 92
C=C1C(=O)O[C@H]2[C@H]1CC/C(COC(=O)NCCc1ccccn1)=C\CC[C@@]1(C)O[C@@H]21: 110

Switching to the query record.
Field Percent Growth (entry "C=C1C(=O)O[C@H]2[C@H]1CC/C(COC(=O)NCCO)=C\CC[C@@]1(C)O[C@@H]21" ) reads 116

====

tested on: U251
Decision: CC50 beneath 60 µM gives 1.0; CC50 meeting or exceeding 60 µM gives 0.0.

C=C1C(=O)O[C@H]2[C@H]1CC/C(COC(=O)NC)=C\CC[C@@]1(C)O[C@@H]21: 1.0
C=C1C(=O)O[C@H]2[C@H]1CC/C(COC(=O)N1CCC(F)(F)CC1)=C\CC[C@@]1(C)O[C@@H]21: 1.0
C=C1C(=O)O[C@H]2[C@H]1CC/C(COC(=O)N1CCN(C)CC1)=C\CC[C@@]1(C)O[C@@H]21: 0.0
C=C1C(=O)O[C@H]2[C@H]1CC/C(COC(=O)NCCO)=C\CC[C@@]1(C)O[C@@H]21: 0.0

Prompt: Find out if reported CC50 for "C=C1C(=O)O[C@H]2[C@H]1CC/C(COC(=O)NCCN1CCCCC1)=C\CC[C@@]1(C)O[C@@H]21" is less than 60 µM
Response: 0.0

====

test system: MCF7; assay: panel of 60 human tumor cell lines, growth inhibition (Breast Cancer); settings: MCF7; Log10 Concentration −6.0
Cut-off 80% on Percent Growth, inclusive. At or above means y; below means n.

C=C1C(=O)O[C@H]2[C@H]1CC/C(COC(=O)NCCO)=C\CC[C@@]1(C)O[C@@H]21 [JVM 2-50]: y
C=C1C(=O)O[C@H]2[C@H]1CC/C(COC(=O)NCCc1ccccn1)=C\CC[C@@]1(C)O[C@@H]21 [JVM 61]: y

Prompt: Form field: Percent Growth at least 80%? Entry: C=C1C(=O)O[C@H]2[C@H]1CC/C(COC(=O)CCC(=O)N1CCC(C)CC1)=C\CC[C@@]1(C)O[C@@H]21 [JVM 2-70]
Response: n

Prompt: Item C=C1C(=O)O[C@H]2[C@H]1CC/C(COC(=O)N1CCC(F)(F)CC1)=C\CC[C@@]1(C)O[C@@H]21 [JVM 2-66] with Percent Growth of 80% or above?
Response: n

Prompt: Hi team, for C=C1C(=O)O[C@H]2[C@H]1CC/C(COC(=O)NC)=C\CC[C@@]1(C)O[C@@H]21 [JVM 2-57] , is the recorded Percent Growth at or above 80%?
Response: y

====

Entries and their IC (TGI)
tested on: CAKI-1; assay: panel of 60 human tumor cell lines, growth inhibition (Renal Cancer); settings: Homo sapiens, CAKI-1, read-out: TGI
Response body: numeric value in µM, unit text excluded.

Worked cases, answers included:
C=C1C(=O)O[C@H]2[C@H]1CC/C(COC(=O)Nc1n[nH]c(SC)n1)=C\CC[C@@]1(C)O[C@@H]21 [JVM 64]: 6.93
C=C1C(=O)O[C@H]2[C@H]1CC/C(COC(=O)CCC(=O)NCc1ccc(Cl)nc1)=C\CC[C@@]1(C)O[C@@H]21 [JVM 96]: 20.3
C=C1C(=O)O[C@H]2[C@H]1CC/C(COC(=O)OC)=C\CC[C@@]1(C)O[C@@H]21 [JVM 2-40]: 15

Summary for this compound, C=C1C(=O)O[C@H]2[C@H]1CC/C(COC(=O)NCCN1CCOCC1)=C\CC[C@@]1(C)O[C@@H]21 [JVM 57] : IC (TGI) is 17.7

Field IC (TGI) (entry C=C1C(=O)O[C@H]2[C@H]1CC/C(COC(=O)NCCN1CCCC1)=C\CC[C@@]1(C)O[C@@H]21 [JVM 59] ) reads 21.2

Record summary for C=C1C(=O)O[C@H]2[C@H]1CC/C(COC(=O)OCCCN1CCCCC1)=C\CC[C@@]1(C)O[C@@H]21 [JVM 2-26] : reported IC (TGI) = 11.9

====

tested on: M14; test: panel of 60 human tumor cell lines, growth inhibition (Melanoma); details: Homo sapiens, M14, read-out: TGI
Response key: met means IC (TGI) >= 20 µM; not met means IC (TGI) < 20 µM.

Illustrative cases are given below, each with its answer.
C=C1C(=O)O[C@H]2[C@H]1CC/C(COC(=O)NCCN1CCOCC1)=C\CC[C@@]1(C)O[C@@H]21 [JVM 57]: met
C=C1C(=O)O[C@H]2[C@H]1CC/C(COC(=O)OCCCN1CCCCC1)=C\CC[C@@]1(C)O[C@@H]21 [JVM 2-26]: not met
C=C1C(=O)O[C@H]2[C@H]1CC/C(COC(=O)NCCN1CCCC1)=C\CC[C@@]1(C)O[C@@H]21 [JVM 59]: met

Prompt: Test whether the compound C=C1C(=O)O[C@H]2[C@H]1CC/C(COC(=S)n1ccnc1)=C\CC[C@@]1(C)O[C@@H]21 [JVM 66] records IC (TGI) of 20 µM or higher.
Response: met

Prompt: Given C=C1C(=O)O[C@H]2[C@H]1CC/C(COC(=O)Nc1n[nH]c(SC)n1)=C\CC[C@@]1(C)O[C@@H]21 [JVM 64] , state whether its IC (TGI) is at least 20 µM.
Response: not met

====

# Lookup of reported Percent Growth keyed by entry
tested on: CAKI-1; test: panel of 60 human tumor cell lines, growth inhibition (Renal Cancer); settings: CAKI-1; Log10 Concentration −7.0
Express the reported value numerically, then name its unit.

C=C1C(=O)O[C@H]2[C@H]1CC/C(COC(=O)CCC(=O)NCc1ccc(Cl)nc1)=C\CC[C@@]1(C)O[C@@H]21: 85%
C=C1C(=O)O[C@H]2[C@H]1CC/C(COC(=O)CCC(=O)N1CCC(C)CC1)=C\CC[C@@]1(C)O[C@@H]21: 95%
C=C1C(=O)O[C@H]2[C@H]1CC/C(COC(=O)N1CCN(C)CC1)=C\CC[C@@]1(C)O[C@@H]21: 87%

# input for lookup
Record "C=C1C(=O)O[C@H]2[C@H]1CC/C(COC(=O)N1CCC(F)(F)CC1)=C\CC[C@@]1(C)O[C@@H]21" . Reported Percent Growth: 91%

====

CC50, HOP-62, per-entry values.
Express your answer in µM, writing the number without its unit.

Recorded CC50, per entry:
C=C1C(=O)O[C@H]2[C@H]1CC/C(COC(=O)NCCN1CCCCC1)=C\CC[C@@]1(C)O[C@@H]21: 68.5
C=C1C(=O)O[C@H]2[C@H]1CC/C(COC(=O)CCC(=O)N1CCC(C)CC1)=C\CC[C@@]1(C)O[C@@H]21: 74.9
C=C1C(=O)O[C@H]2[C@H]1CC/C(COC(=O)N1CCC(F)(F)CC1)=C\CC[C@@]1(C)O[C@@H]21: 58.3

Record "C=C1C(=O)O[C@H]2[C@H]1CC/C(COC(=O)NC)=C\CC[C@@]1(C)O[C@@H]21" ; system HOP-62; CC50 = 59.5

====

system: HCT-15
REPORTED PROPERTY: CC50 (µM)
Form entry: value (µM) — number only.

See these solved cases before continuing.
C=C1C(=O)O[C@H]2[C@H]1CC/C(COC(=O)NCCO)=C\CC[C@@]1(C)O[C@@H]21: 57.5
C=C1C(=O)O[C@H]2[C@H]1CC/C(COC(=O)N1CCN(C)CC1)=C\CC[C@@]1(C)O[C@@H]21: 56.6
C=C1C(=O)O[C@H]2[C@H]1CC/C(COC(=O)NCCN1CCCCC1)=C\CC[C@@]1(C)O[C@@H]21: 50.7

Per the reported HCT-15 data, "C=C1C(=O)O[C@H]2[C@H]1CC/C(COC(=O)N1CCC(F)(F)CC1)=C\CC[C@@]1(C)O[C@@H]21" has CC50 of 10

For "C=C1C(=O)O[C@H]2[C@H]1CC/C(COC(=O)NC)=C\CC[C@@]1(C)O[C@@H]21" on HCT-15, measured CC50 was 41.8

// assay HCT-15, entry "C=C1C(=O)O[C@H]2[C@H]1CC/C(COC(=O)CCC(=O)N1CCC(C)CC1)=C\CC[C@@]1(C)O[C@@H]21" , CC50 value = 32.6

Where do these numbers come from? They come from patent US9469650B2.
